[
  {
    "compound": "O=C1N(C(c2ccccc2)c2ccccc2)c2ccc(F)cc2C12COc1cc3c(cc12)CCO3 (centres unmarked)",
    "melting point": "228 to 229 °C"
  },
  {
    "compound": "CCCCCN1C(=O)[C@]2(COc3cc4c(cc32)CCO4)c2ccccc21",
    "melting point": "128 to 129 °C"
  },
  {
    "compound": "COCCOCCN1C(=O)C2(COc3cc4c(cc32)OCCO4)c2cc3c(cc21)OCCO3 (centres unmarked)",
    "melting point": "146 to 148 °C"
  },
  {
    "compound": "Cc1ccc(F)c2c1N(C(c1ccccc1)c1ccccc1)C(=O)C21COc2cc3c(cc21)CCO3 (centres unmarked)",
    "melting point": "81 to 82 °C"
  },
  {
    "compound": "N#Cc1ccc(CN2C(=O)C3(COc4cc5c(cc43)OCCO5)c3ccccc32)cc1 (centres unmarked)",
    "melting point": "69 to 72 °C"
  },
  {
    "compound": "O=C1N(Cc2cccc(Cl)n2)c2ccccc2C12COc1cc3c(cc12)OCCO3 (centres unmarked)",
    "melting point": "181 to 182 °C"
  },
  {
    "compound": "O=C1N(Cc2nnc(-c3ccc(Cl)cc3)o2)c2ccccc2C12COc1cc3c(cc12)OCO3 (centres unmarked)",
    "melting point": "161 to 162 °C"
  },
  {
    "compound": "CN1C(=O)C2(COc3cc4c(cc32)OCCO4)c2c(-c3cc(O)[nH]n3)cccc21 (centres unmarked)",
    "melting point": "> 250 °C"
  },
  {
    "compound": "O=C1Nc2ccccc2C12COc1cc3c(cc12)CCCO3 (centres unmarked)",
    "melting point": "216 to 220 °C"
  },
  {
    "compound": "N#Cc1cccc(CN2C(=O)C3(COc4cc5c(cc43)CCO5)c3ccccc32)c1 (centres unmarked)",
    "melting point": "187 to 193 °C"
  },
  {
    "compound": "O=C1N(Cc2cc(=O)[nH]c(=O)[nH]2)c2ccccc2C12COc1cc3c(cc12)OCO3 (centres unmarked)",
    "melting point": "> 300 °C"
  },
  {
    "compound": "N#CCCN1C(=O)C2(COc3cc4c(cc32)OCO4)c2ccccc21 (centres unmarked)",
    "melting point": "200 to 202 °C"
  },
  {
    "compound": "N#Cc1cccc2c1NC(=O)C21COc2cc3c(cc21)OCO3 (centres unmarked)",
    "melting point": "205 to 207 °C"
  },
  {
    "compound": "O=C1N(Cc2ccc(-c3ccno3)cc2)c2ccccc2C12COc1cc3c(cc12)OCCO3 (centres unmarked)",
    "melting point": "209 to 212 °C"
  },
  {
    "compound": "O=C1N(Cc2ccc(Cl)s2)c2c(C(F)(F)F)cccc2C12COc1cc3c(cc12)OCO3 (centres unmarked)",
    "melting point": "165 to 166 °C"
  },
  {
    "compound": "COc1ncc(CN2C(=O)[C@@]3(COc4cc5c(cc43)OCCO5)c3ccccc32)cn1",
    "melting point": "102 to 104 °C"
  },
  {
    "compound": "CCCCC(=O)Nc1cccc2c1C1(COc3cc4c(cc31)OCCO4)C(=O)N2C (centres unmarked)",
    "melting point": "182 to 183 °C"
  }
]
